# Assay Setup: in methyl acetate, 323.15 K
Property Measured: solubility (mole fraction)
A bare number is all that is needed in reply.

## Task What measured solubility (mole fraction) goes with COC(=O)[C@H](N)c1ccc(O)cc1 ?
## Result 0.00444

* * *

# Assay Setup: in n-butyl acetate, 293.15 K
Property Measured: solubility (mole fraction)
A bare number is all that is needed in reply.

## Task What measured solubility (mole fraction) goes with COC(=O)[C@H](N)c1ccc(O)cc1 ?
## Result 0.000116

* * *

# Assay Setup: in n-propyl acetate, 298.2 K
Property Measured: solubility (mole fraction)
A bare number is all that is needed in reply.

## Task What measured solubility (mole fraction) goes with COC(=O)[C@H](N)c1ccc(O)cc1 ?
## Result 0.000415
